System: CHO-K1
Assay: Cytotoxicity against CHO-K1 cells by MTT assay
Assay type: toxicity, cell-based, Cricetulus griseus
Design: concentration or dose not given beside the values
Conditions: chinese hamster
Below, each entry is listed alongside its reported Activity.
Please give a number only; it is taken to be in %.

Look at this compound and give its reported Activity. COC(=O)c1cnc2c(C(=O)Nc3c(C)n(C)n(-c4ccccc4)c3=O)cnn2c1C 49.24

Look at this compound and give its reported Activity. CC(=O)c1cnc2c(C(=O)Nc3c(C)n(C)n(-c4ccccc4)c3=O)cnn2c1C 72.46

Item under review: Cc1c(NC(=O)c2cnn3cc(-c4ccccc4)cnc23)c(=O)n(-c2ccccc2)n1C . Reported Activity? 97.1

Requested read-out: Activity. Entry: COc1ccc(-c2cnc3c(C(=O)Nc4c(C)n(C)n(-c5ccccc5)c4=O)cnn3c2N)cc1 72.96

# input compound: Cc1c(NC(=O)c2cnn3c(N)c(-c4ccccc4)cnc23)c(=O)n(-c2ccccc2)n1C ; wanted: its Activity 45.75
